This collection of values is drawn from patent US8008547B2.

Provide the reported Km of each item.
# ASSAY: Standard protocol for determination of kcat and KM (continuous spectrophotometric assay, Acetyl CoA hydrolysis at 235 nm)
# Format: biochemical
# ASSAY_SETUP: purified protein; about 23° C.; pH 6.8; 0.2 mM acetyl CoA; glyphosate 0.125 to 10 mM
Give bare numbers, in µM.

Use these answered entries as a reference point.
[[record]]
molecule = "SEQ ID NO: 305: GAT polypeptide (protein, 13_9F6, GAT polypeptide) MIEVKPINAEDTYEIRHRILRPNQPLEACKYETDLLGGTFHLGGYYRGKLISIASFHQAEHPELEGQKQYQLRGMATLEEYREQKAGSTLIRHAEELLRKKGADLLWCNARTSASGYYKKLGFSEQGEVYDIPPVGPHILMYKKLT"
quantity_name = "Km"
units_of_measure = "µM"
recorded_number = 1300

[[record]]
molecule = "SEQ ID NO: 447: GAT polypeptide (protein, 0_6B4, GAT polypeptide) MLEVKPINAEDTYELRHRILRPNQPIEACMYESDLLRGALHLGGFYRGKLISIASFHQAEHSDLQGQKQYQLRGMATLEGFRDQKAGSSLIRHAEQILRKRGADLLWCNARTSASGYYKKLGFSEQGKVFDTPPVGPHILMYKRIT"
quantity_name = "Km"
units_of_measure = "µM"
recorded_number = 800


Batch request: Km per item, same order as input.
1. SEQ ID NO: 414: GAT polypeptide (protein, 6F1, GAT polypeptide) MIEVKPINAEDTYEIRHRILRPNQPLEACMYETDLLGGTFHLGGYYRGKLVCIASFHKAEHSELEGQKQYQLRGMATLDGYREQKAGSTLIRHAEELLRKKGADLLWCNARTSVSGYYEKLGFSEQGEVYDIPPVGPHILMYKKLT
2. SEQ ID NO: 306: GAT polypeptide (protein, 14_10C9, GAT polypeptide) MIEVKPINAEDTYEIRHRILRPNQPLEACKYETDLLRGAFHLGGYYRGKLISIASFHQAEHPELEGQKQYQLRGMATLEEYREQKAGSTLIRHAEELLRKKGADLLWCNARTSASGYYKKLGFSEQGEVYDTPPVGPHILMYKKLT
3. SEQ ID NO: 412: GAT polypeptide (protein, 6_8H3, GAT polypeptide) MIEVKPINAEDTYEIRHRILRPNQPLEACMYETDLLGGTFHLGGYYRGKLISIASFHQAEHPELEGQKQYQLRGMATLEGYREQKAGSTLIRHAEELLRKKGADLLWCNARTSASGYYKKLGFSEQGGVYDIPPVGPHILMYKKLT
4. SEQ ID NO: 418: GAT polypeptide (protein, 7_2D7, GAT polypeptide) MIEVKPINAEDTYEIRHRILRPNQPLEACKYETDLLGGTFHLGGYYRGKLISIASFHQAEHPELEGQKQYQLRGMATLEGYREQKAGSTLIRHAEELLRKKGADLLWCNARTSASGYYKKLGFSEQGEVYDIPPVGPHILMYKKLT
5. SEQ ID NO: 377: GAT polypeptide (protein, 4B_6D8, GAT polypeptide) MIEVKPINAEDTYEIRHRILRPNQPLEACKYETDLLGGTFHLGGYYRGKLISIASFHQAEHSELEGQKQYQLRGMATLEGYREQKAGSTLIRHAEELLRKKGADLLWCNARTSASGYYKKLGFSEHGEVYDIPPIGPHILMYKKLT

[1800, 900, 1000, 1100, 1500]

Batch request: Km per item, same order as input.
1. SEQ ID NO: 298: GAT polypeptide (protein, 1_2H6, GAT polypeptide) MIEVKPINAEDTYEIRHRILRPNQPLEACMYETDLLGGAFHLGGYYRGKLISIASFHQAEHSELEGQKQYQLRGMATLEGYREQKAGSTLIRHAEELLRKKGADLLWCNARTSASGYYKKLGFSEQGGVYDIPPIGPHILMYKKLT
2. SEQ ID NO: 371: GAT polypeptide (protein, 4B_18F11, GAT polypeptide) MIEVNPINAEDTYEIRHRILRPNQPLEACMYETDLLGGTSHLGGYYRGKLISIASFHNAEHSELDGQKQYQLRGMATLEGYREQKAGSTLIRHAEELLRKKGADLLWCNARTSVSGYYEKLGFSEQGEVYDIPPIGPHISMYKKLT
3. SEQ ID NO: 370: GAT polypeptide (protein, 4B_17A1, GAT polypeptide) MIEVKPINAEDTYEIRHRILRPNQPLEACKYETDLLGGTFHLGGYYRGKLISIASFHQAEHPELEGQKQYQLRGMATLEEYREQKAGSTLIRHAEELLRKKGADLLWCNARTSASGYYEKLGFSEQGEVYDIPPIGPHILMYKKLT
4. SEQ ID NO: 353: GAT polypeptide (protein, 24E7, GAT polypeptide) MIEVKPINAEDTYEIRHRILRPNQPLEACKYETDLLGGTFHLGGYYRGKLISIASFHNAEHSELEGQKQYQLRGMATLEGYREQKAGSTLIRHAEELLRKKGADLLWCNARTSASGYYEKLGFSEQGEVYDIPPIGPHILMYKKLA
5. SEQ ID NO: 379: GAT polypeptide (protein, 4C_8C9, GAT polypeptide) MIEVKPINAEDTYEIRHRILRPNQPLEACMYETDLLRGAFHLGGYYRGKLISIASFHQAEHPELEGQKQYQLRGMATLEGYREQKAGSTLIRHAEELLRKKGADLLWCNARTSASGYYEKLGFSEQGEVYDIPPIGPHILMYKKLT

[900, 1700, 1100, 900, 600]
